Recorded pIC50 by entry
system-tested: Substance-P receptor (Homo sapiens)
Sequence (P25103 whole entry): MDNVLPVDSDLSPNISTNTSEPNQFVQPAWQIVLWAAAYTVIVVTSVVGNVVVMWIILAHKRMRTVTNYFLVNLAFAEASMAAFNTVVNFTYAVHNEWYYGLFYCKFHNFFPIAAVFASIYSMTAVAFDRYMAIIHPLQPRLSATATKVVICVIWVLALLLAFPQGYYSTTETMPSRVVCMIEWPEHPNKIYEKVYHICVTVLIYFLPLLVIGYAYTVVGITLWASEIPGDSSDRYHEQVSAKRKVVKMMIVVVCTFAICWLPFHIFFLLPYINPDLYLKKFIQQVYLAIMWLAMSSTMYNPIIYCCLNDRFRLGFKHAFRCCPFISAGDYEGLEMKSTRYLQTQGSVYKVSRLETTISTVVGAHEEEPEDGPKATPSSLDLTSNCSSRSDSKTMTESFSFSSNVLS
experimental-protocol: Binding affinity against human Tachykinin receptor 1 expressed in CHO cells using [3H]-substance P as the radioligand
pIC50: −log10 of the molar value.
measurement-name: pIC50

[[record]]
compound = "Cc1cc(C)cc(COCC(c2ccccc2)N2CCNCC2)c1 (stereo not given)"
measurement_name = "pIC50"
recorded_value = 7.60

[[record]]
compound = "COc1c(Br)cc(Br)cc1COCC(c1ccccc1)N1CCNCC1 (stereo not given)"
measurement_name = "pIC50"
recorded_value = 8.10

[[record]]
compound = "FC(F)(F)c1cc(COCC(c2cccc(Cl)c2)N2CCNCC2)cc(C(F)(F)F)c1 (stereo not given)"
measurement_name = "pIC50"
recorded_value = 8.80

[[record]]
compound = "COc1ccc(C(COCc2cc(C(F)(F)F)cc(C(F)(F)F)c2)N2CCNCC2)cc1 (stereo not given)"
measurement_name = "pIC50"
recorded_value = 7.30

[[record]]
compound = "Fc1cc(COCC(c2ccccc2)N2CCNCC2)cc(C(F)(F)F)c1 (stereo not given)"
measurement_name = "pIC50"
recorded_value = 7.90

